Test system: highly cross-resistant HIV-1 strains derived from AIDS patients
Type: cell-based
measurementConditions: eight highly PI-resistant clinical isolates, PHA-PBMC; read-out: IC50 values, range over all eight isolates
pIC50: −log10 of the molar value.
reportedProperty: pIC50

Q. // query pIC50 value for entry `COc1ccc(S(=O)(=O)N(CC(C)C)C[C@@H](O)[C@H](Cc2ccccc2)NC(=O)O[C@H]2CO[C@H]3OCC[C@H]32)cc1`
A. 8.26 to 9.30

----------
Tested on: HIV-1 clinical isolate 5
assayProcedure: PI sensitivity of PI-resistant clinical isolate 5 in PHA-PBMC, p24
Assay type: cell-based
measurementConditions: Human immunodeficiency virus 1; isolate 5: L10I, K43T, N46L, I54L, L63P, A71T, V82A, L90N, D92K; PHA-PBMC, p24
reportedProperty: pIC50
Expect pIC50 as a plain number equal to -log10 of the molar concentration.

// worked examples, pIC50 included
| molecularString | testedOn | pIC50 |
| --- | --- | --- |
| CC(C)(C)NC(=O)[C@@H]1C[C@@H]2CCCC[C@@H]2CN1C[C@@H](O)[C@H](Cc1ccccc1)NC(=O)[C@H](CC(N)=O)NC(=O)c1ccc2ccccc2n1 | HIV-1 clinical isolate 5 | 6.51 |
| Cc1c(O)cccc1C(=O)N[C@@H](CSc1ccccc1)[C@H](O)CN1C[C@H]2CCCC[C@H]2C[C@H]1C(=O)NC(C)(C)C | HIV-1 clinical isolate 5 | 6.39 |

Next molecule, pIC50 to be filled in.
Q. // query pIC50 value for entry `CC(C)CN(C[C@@H](O)[C@H](Cc1ccccc1)NC(=O)O[C@H]1CCOC1)S(=O)(=O)c1ccc(N)cc1`
A. 6.17
